Test system: K562 cells
measurementDescription: K562 cell proliferation assay (CellTiter-Glo)
Format: cell-based
condition: Homo sapiens, K562 cell viability, 72 hours, read-out: Cell Line (IC50, nM) K562
quantity: IC50 (nM)

- compound: "COc1ccccc1-c1c(C)c2cc(NC(=O)[C@@H]3C[C@@H]3F)ncc2n1C"
  quantity: "IC50"
  unitLabel: "nM"
  recordedResult: 317

(A) COc1ncc(F)c(OC)c1-c1cc2cc(NC(=O)[C@H]3C[C@@H]3CN3CCN(C)CC3)ncc2n1C (single isomer, unassigned)
(B) COc1nc(C2CC2)nc(OC)c1-c1cc2cc(NC(=O)[C@@H]3C[C@@H]3F)ncc2n1C
(C) COc1ccccc1-c1c(C)c2cc(NC(=O)[C@H]3C[C@H]3F)ncc2n1C
# rank_down: sort by IC50, max first Your answer should be the labels, listed in the requested order. C, B, A
(C: 368 nM, B: 66.2 nM, A: 28.6 nM)
